- MEASURED TARGET: human α-thrombin (Homo sapiens, UniProt P00734)
- Construct: Bovine and human α-thrombins were supplied by Haematologic Technologies Inc (VT, USA); cleaved off efficiently by thrombin to generate the free N-terminus of the A-chain of human thrombin; purchased Haematologic Technologies Inc (VT, USA)
- METHOD: Inhibition of the amidolytic activity of thrombin (Tos-Gly-Pro-Arg-p-nitroanilide hydrolysis)
- Assay type: biochemical
- ASSAY SETUP: Amidolytic assay, 25° C. (Ki, nM), Tos-Gly-Pro-Arg-pNA, 25° C.
Ends that are not written are not given here.
ENDPOINT: Ki (nM)
Field format: number, assumed nM, no unit text.

Item WDPRPQLHNDGDFEPIPEEYLQ [WD22-L-P] has what recorded Ki?
39

* * *

# log10 IC50 annotations
- MEASURED TARGET: human α-thrombin (Homo sapiens, UniProt P00734)
- Construct: Bovine and human α-thrombins were supplied by Haematologic Technologies Inc (VT, USA); cleaved off efficiently by thrombin to generate the free N-terminus of the A-chain of human thrombin; purchased Haematologic Technologies Inc (VT, USA)
- METHOD: Clotting assay: fibrinogen clotting by human thrombin, concentration doubling the clotting time (DCT) = IC50
- Assay type: biochemical
Ends that are not written are not given here.
Record value = log10 of IC50 given in nM.

Here are 2 sequences together with their reported answers.
- RESIDUE CODES: "WDPRPQSRNDGDYEPIPEEYLQ [WD22-SR-YP]"
  log10 IC50: 1.51
- RESIDUE CODES: "WDPRPQSRNDGDFEPIPEEYLQ [WD22-SR-P]"
  log10 IC50: 1.72

Item WDPRPQRHNDGDFEPIPEEYLQ [WD22-R-P^(d)] has what recorded log10 IC50?
0.91

Item WDPRPQRHNDGDYEPIPEEYLQ [WD22-R-YP] has what recorded log10 IC50?
0.65

Item WDPRPQRHNDGDYEPIPEEYLQ [WD22-R-YP^(d)] has what recorded log10 IC50?
0.68

* * *

- MEASURED TARGET: human α-thrombin (Homo sapiens)
- Construct: Bovine and human α-thrombins were supplied by Haematologic Technologies Inc (VT, USA); cleaved off efficiently by thrombin to generate the free N-terminus of the A-chain of human thrombin; purchased Haematologic Technologies Inc (VT, USA)
- METHOD: Inhibition of the amidolytic activity of thrombin (Tos-Gly-Pro-Arg-p-nitroanilide hydrolysis)
- Type: biochemical
Ends that are not written are not given here.
ENDPOINT: Ki (nM)
Field format: number, assumed nM, no unit text.

- RESIDUE CODES: "WDPRPQRHNDGDFEPIPEEYLQ [WD22-R-P]"
  MEASURED TARGET: "human α-thrombin (Homo sapiens)"
  Ki (nM): 171

Item WDPRPQRHNDGDYEPIPEEYLQ [WD22-R-YP] has what recorded Ki?
358
